// reported MIC per item
Tested on: Escherichia coli (ATCC 25922)
Assay: MIC, broth microdilution
Settings: Escherichia coli, ATCC25922, read-out: Compound MIC on Bacterial Strains: E. coli ATCC 25922

molecule	MIC
CCN[C@@H]1C[C@H](N)[C@@H](O[C@H]2OC(CN)=CC[C@H]2N)[C@H](O)[C@H]1O[C@H]1OC[C@](C)(O)[C@H](NC)[C@H]1O [Netilmicin, reference compound]	< 1 µg/mL
CN[C@@H]1[C@@H](O)[C@@H](O[C@@H]2[C@@H](O)[C@H](O[C@H]3O[C@H](CNC[C@H](O)CO)CC[C@H]3N)[C@@H](N)C[C@H]2NC(=O)[C@@H](O)CN)OC[C@]1(C)O	< 1 µg/mL
CN[C@@H]1C(O)[C@@H](OC2C(O)C(O[C@H]3O[C@H](CN)CCC3N)[C@@H](N)C[C@H]2NC(=N)CO)OCC1(C)O (some centres unmarked)	1 to 8 µg/mL
CN[C@@H]1[C@@H](O)[C@@H](O[C@@H]2[C@@H](O)[C@H](O[C@H]3O[C@H](CNCCO)CC[C@H]3N)[C@@H](N)C[C@H]2NC(=O)C2(O)CNC2)OC[C@]1(C)O	< 1 µg/mL
CN[C@@H]1[C@@H](O)[C@@H](O[C@@H]2[C@@H](O)[C@H](O[C@H]3O[C@H](CN)CC[C@H]3N)[C@@H](N)C[C@H]2NC(=O)[C@@H](O)[C@H](N)CO)OC[C@]1(C)O	1 to 8 µg/mL
